Target: NEP (Rattus norvegicus)
Sequence (P07861 1-750): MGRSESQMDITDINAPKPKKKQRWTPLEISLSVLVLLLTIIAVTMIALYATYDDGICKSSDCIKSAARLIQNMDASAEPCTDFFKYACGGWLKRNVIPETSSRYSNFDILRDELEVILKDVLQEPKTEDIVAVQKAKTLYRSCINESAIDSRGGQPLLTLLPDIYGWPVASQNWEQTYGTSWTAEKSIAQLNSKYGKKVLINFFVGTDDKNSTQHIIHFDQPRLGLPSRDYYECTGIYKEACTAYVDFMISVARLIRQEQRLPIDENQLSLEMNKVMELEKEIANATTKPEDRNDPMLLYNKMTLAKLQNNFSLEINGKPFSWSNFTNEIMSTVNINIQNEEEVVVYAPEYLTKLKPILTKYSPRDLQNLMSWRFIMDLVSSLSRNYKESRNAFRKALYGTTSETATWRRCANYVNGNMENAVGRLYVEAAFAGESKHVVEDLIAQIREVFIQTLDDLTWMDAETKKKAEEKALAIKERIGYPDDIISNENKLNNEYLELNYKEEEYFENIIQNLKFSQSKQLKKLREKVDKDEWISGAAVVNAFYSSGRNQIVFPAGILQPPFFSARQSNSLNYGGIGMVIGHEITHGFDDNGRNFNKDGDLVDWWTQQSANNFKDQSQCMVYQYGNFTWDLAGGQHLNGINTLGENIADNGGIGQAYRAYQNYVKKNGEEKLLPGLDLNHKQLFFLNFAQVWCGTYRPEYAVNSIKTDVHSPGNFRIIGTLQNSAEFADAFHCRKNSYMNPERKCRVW
attributeMeasured: IC50 (nM)
Give your result in nM as a bare value.

Some solved cases for reference:
CC(C)CC(CP(=O)(O)CNC(=O)OCc1ccccc1)C(=O)N[C@@H](Cc1ccc(-c2ccccc2)cc1)C(=O)O (stereo partly drawn) : 36
COCCOCC(CC1(C(=O)N[C@H]2CC[C@@H](C(=O)O)CC2)CCCC1)C(=O)O (relative stereo) [Candoxatrilat, reference compound] : 160

Field: next molecule
Query :: IC50 for O=C(NCP(=O)(O)CC(Cc1ccccc1)C(=O)N[C@@H](Cc1ccc(-c2ccccc2)cc1)C(=O)O)OCc1ccccc1 (stereo partly drawn) ?
Result :: 252
